# MIC per record follows
Test system: Pseudomonas aeruginosa
ASSAY_REMARKS: ≥ marks a high value that may be exact or a test limit, other limits are often not marked, values filed in µg/mL are converted to µM
# unit: µM | format: bare number

Here is how some compounds turned out for MIC.
>  <GIVEN_SMILES>
CC[C@H](C)[C@H](NC(=O)[C@H](Cc1cnc[nH]1)NC(=O)[C@H](CCCCN)NC(=O)[C@H](CC(C)C)NC(=O)[C@H](C)NC(=O)[C@H](CO)NC(=O)[C@H](CCSC)NC(=O)[C@H](Cc1c[nH]c2ccccc12)NC(=O)[C@H](CCCCN)NC(=O)CN)C(=O)N[C@@H](CC(C)C)C(=O)N[C@@H](CCCCN)C(N)=O

>  <EXPERIMENTAL_ENDPOINT>
MIC

>  <NUMBER>
100

$$$$
>  <GIVEN_SMILES>
CC[C@H](C)[C@H](NC(=O)[C@H](CCCCN)NC(=O)[C@H](CCCCN)NC(=O)[C@H](CC(C)C)NC(=O)[C@H](CCCCN)NC(=O)[C@H](CCCCN)NC(=O)[C@H](Cc1c[nH]c2ccccc12)NC(=O)[C@H](CC(C)C)NC(=O)[C@H](CO)NC(=O)[C@H](CO)NC(=O)[C@H](CC(C)C)NC(=O)[C@H](CCCCN)NC(=O)CN)C(=O)N[C@H](C(=O)N[C@@H](C)C(=O)N[C@@H](CCCCN)C(N)=O)[C@@H](C)CC

>  <EXPERIMENTAL_ENDPOINT>
MIC

>  <NUMBER>
19

$$$$
>  <GIVEN_SMILES>
CC[C@H](C)[C@H](NC(=O)[C@H](CCCN=C(N)N)NC(=O)[C@H](C)NC(=O)[C@H](CC(C)C)NC(=O)[C@H](CCCN=C(N)N)NC(=O)CNC(=O)[C@H](Cc1ccccc1)NC(=O)[C@@H](NC(=O)[C@H](CO)NC(=O)CNC(=O)[C@H](CC(C)C)NC(=O)CN)C(C)C)C(=O)N[C@@H](CC(C)C)C(=O)NCC(=O)N[C@@H](CCCN=C(N)N)C(=O)N[C@H](C(=O)N[C@H](C(=O)N1CCC[C@H]1C(=O)N[C@@H](CCCCN)C(=O)N[C@H](C(N)=O)C(C)C)[C@@H](C)CC)C(C)C

>  <EXPERIMENTAL_ENDPOINT>
MIC

>  <NUMBER>
4

$$$$
>  <GIVEN_SMILES>
CC[C@H](C)[C@H](NC(=O)[C@H](Cc1cnc[nH]1)NC(=O)[C@H](CCCCN)NC(=O)[C@H](CC(C)C)NC(=O)[C@H](CC(C)C)NC(=O)[C@H](CO)NC(=O)[C@H](CCSC)NC(=O)[C@H](Cc1c[nH]c2ccccc12)NC(=O)[C@H](CCCCN)NC(=O)[C@@H](N)CO)C(=O)N[C@@H](CC(C)C)C(=O)N[C@@H](CCCCN)C(N)=O

>  <EXPERIMENTAL_ENDPOINT>
MIC

>  <NUMBER>
50

$$$$

Next compound, MIC to be filled in.
Q: # query: MIC of entry CC(C)C[C@H](NC(=O)[C@H](CCCCN)NC(=O)[C@H](CCCN=C(N)N)NC(=O)[C@H](Cc1ccccc1)NC(=O)[C@H](Cc1ccccc1)NC(=O)[C@H](CCCCN)NC(=O)[C@H](CCCCN)NC(=O)[C@H](Cc1ccccc1)NC(=O)[C@H](CCCN=C(N)N)NC(=O)[C@H](CCCCN)NC(=O)[C@@H](NC(=O)[C@@H](N)CC(C)C)C(C)C)C(=O)N[C@@H](CCCCN)C(=O)N[C@@H](CCCCN)C(=O)N[C@@H](CO)C(=O)N[C@H](C(=O)N[C@@H](CCCCN)C(N)=O)C(C)C
Ans: 1.83
